Values from patent US20250171447A1

IC50 tested on human A2A adenosine receptor (Homo sapiens (Human)): recorded values
reported property: IC50 (nM)

Worked examples follow.
1) COc1cccc2c1nc(N)n1nc([C@H]3C[C@H](c4ncc(C(C)(C)N)nc4C(F)(F)F)C3)nc21 [Ex-126] : 4.6
2) COc1cc(F)cc2c1nc(N)n1nc(C3CC3C(C)(C)O)nc21 (centres unmarked) [Ex-28] : 1.5
3) COc1cccc2c1nc(N)n1nc(C3CC(c4ccc([C@@H](N)C(F)(F)F)nc4)C3)nc21 (some centres unmarked) [Ex-96] : 14
4) COc1cccc2c1nc(N)n1nc(C3CC3c3ccc4nnc(C)n4c3)nc21 (centres unmarked) [Ex-9] : 2
5) COc1cccc2c1nc(N)n1nc([C@H]3C[C@@H](c4cc(C)c(C(C)(C)N)cn4)C3)nc21 [Ex-80] : 4.5

a. COc1cccc2c1nc(N)n1nc([C@H]3C[C@@H](c4ccc(C(C)(C)O)cc4)C3)nc21 [Ex-42]
b. COc1cccc2c1nc(N)n1nc([C@H]3C[C@@H](c4ccc([C@@H](N)C(F)(F)F)nc4)C3)nc21 [Ex-95]
Task: API: POST /compare with a and b ; response names the item with higher IC50. Answer = label.
Result: b

###

# experimental target: UniProt:P29275
reported property: IC50 (nM)

Record excerpt, results attached:
1) COc1cccc2c1nc(N)n1nc(C3CC3c3cncc(F)c3)nc21 (stereo not drawn) [Ex-18] : 252
2) COc1cccc2c1nc(N)n1nc([C@H]3C[C@@H](c4ccc(C(C)(C)N)cn4)C3)nc21 [Ex-67] : 1.8
3) COc1cccc2c1nc(N)n1nc(C3CC3c3ccc4nnc(C)n4c3)nc21 (stereo not drawn) [Ex-9] : 337
4) COc1cccc2c1nc(N)n1nc(C3CC3c3ccc(C(N)=O)c(F)c3)nc21 (stereo not drawn) [Ex-17] : 40.7
5) COc1cccc2c1nc(N)n1nc(C3CC3c3ccc4cnn(C)c4c3)nc21 (stereo not drawn) [Ex-21] : 104

A. COc1cccc2c1nc(N)n1nc(C3CC3c3ccc4c(c3)NCCO4)nc21 (stereo not drawn) [Ex-24]
B. COc1cccc2c1nc(N)n1nc(C3CC3c3cnn(C)c3)nc21 (stereo not drawn) [Ex-27]
C. COc1cccc2c1nc(N)n1nc([C@H]3C[C@H](c4ncc(C(C)(C)N)cc4F)C3)nc21 [Ex-85]
Task: Sort (3 molecules) by IC50: min first. Use the labels to give the ranking in the order requested.
Result: C, A, B
(C: 1.3 nM, A: 42.6 nM, B: 864 nM)

###

# experimental target: human A2A adenosine receptor (Homo sapiens (Human), UniProt P29274)
# Sequence (P29274 whole entry): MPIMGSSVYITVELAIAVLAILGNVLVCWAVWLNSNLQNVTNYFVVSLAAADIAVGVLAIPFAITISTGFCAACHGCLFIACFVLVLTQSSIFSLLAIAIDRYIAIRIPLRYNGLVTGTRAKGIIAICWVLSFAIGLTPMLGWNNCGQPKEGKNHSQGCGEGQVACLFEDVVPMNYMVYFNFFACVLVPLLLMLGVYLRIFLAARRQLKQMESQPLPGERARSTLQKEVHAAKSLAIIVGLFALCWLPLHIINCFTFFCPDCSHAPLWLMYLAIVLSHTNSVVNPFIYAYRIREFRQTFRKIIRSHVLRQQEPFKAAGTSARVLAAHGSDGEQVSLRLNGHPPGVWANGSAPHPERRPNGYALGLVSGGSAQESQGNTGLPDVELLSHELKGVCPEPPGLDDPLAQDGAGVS
# experiment notes: A2A receptor affinity binding assay (radioligand filtration binding or SPA, [3H]SCH58261)
# measurement context: membranes from HEK293 or CHO cells expressing human A2A; Method (A) filtration or Method (B) SPA
reported property: IC50 (nM)

1) COc1cccc2c1nc(N)n1nc([C@H]3C[C@H](c4ccc(C(C)(N)C(F)F)nc4)C3)nc21 (some centres unmarked) : 14.1

P. COc1cccc2c1nc(N)n1nc([C@H]3C[C@H](c4ccc([C@@H](N)C(F)F)cn4)C3)nc21 (single isomer, unassigned)
Q. CNC(=O)c1cccc(C2CC2c2nc3c4cccc(OC)c4nc(N)n3n2)c1 (centres unmarked)
Task: Which one would you say has the larger IC50 value: P , or Q ? Write down the label of the entry you select.
Result: P

A. COc1cccc2c1nc(N)n1nc([C@H]3C[C@H](c4ccc(C(N)C(F)F)cn4)C3)nc21 (some centres unmarked)
B. COc1cccc2c1nc(N)n1nc([C@H]3C[C@H](c4ccc(C(C)N)cn4)C3)nc21 (some centres unmarked)
Task: Rank A against B by their IC50 values and give the higher one. // output: label of the selected item
Result: B

a. COc1cccc2c1nc(N)n1nc([C@H]3C[C@H](c4cc(C)c(C(C)(C)N)cn4)C3)nc21
b. COc1cccc2c1nc(N)n1nc([C@H]3C[C@@H](c4ccc(CN5CCNCC5)cc4)C3)nc21
Task: Name the one with the greater IC50 value, either a or b as given. Label of pick, please.
Result: a

###

System: human A2A adenosine receptor (Homo sapiens (Human)) | Read-out: IC50
reported property: IC50 (nM)

Example entries begin here.
1. COc1cccc2c1nc(N)n1nc(C3CC3c3cccc(NC(C)=O)c3)nc21 (stereo not drawn) : 0.5
2. COc1cccc2c1nc(N)n1nc([C@H]3C[C@H](c4cnc(N5CCN[C@H](C)C5)c(C)c4)C3)nc21 : 1.5
3. COc1cccc2c1nc(N)n1nc([C@H]3C[C@H](c4ncc(C(C)(C)N)cc4F)C3)nc21 : 2.7

A. COc1cccc2c1nc(N)n1nc([C@H]3C[C@@H](c4ccc([C@H](N)C(F)F)cn4)C3)nc21 (single isomer, unassigned)
B. COc1cccc2c1nc(N)n1nc([C@H]3C[C@@H](c4cnc(C(C)(C)N)c(C)n4)C3)nc21
Task: Select the item whose IC50 value is smaller, choosing between A and B . Lab log: write the label of the selected item as the result.
Result: A
(A: 2.7 nM, B: 15.9 nM)

a. COc1cc(F)cc2c1nc(N)n1nc([C@H]3C[C@@H](c4ccc(C(C)(C)O)cc4)C3)nc21
b. COc1cccc2c1nc(N)n1nc(C3CC3c3cnc(C)nc3)nc21 (stereo not drawn)
Task: So which one has the bigger IC50 here, a or b ? Return value: the label identifying the chosen record.
Result: b
(b: 12.3 nM, a: 1 nM)

###

pIC50: −log10 of the molar value.
Record set of pIC50 for target or system human A2A adenosine receptor (Homo sapiens (Human), UniProt P29274).
reported property: pIC50

1. COc1cccc2c1nc(N)n1nc(C3CC3c3ccccc3[C@@H](C)O)nc21 (some centres unmarked) [Ex-12]
2. COc1cccc2c1nc(N)n1nc([C@H]3C[C@@H](c4ccc(C(N)C(F)(F)F)cc4)C3)nc21 (single isomer, unassigned) [Ex-76]
3. COc1cccc2c1nc(N)n1nc([C@H]3C[C@@H](c4ncc5c(n4)CCNC5)C3)nc21 (single isomer, unassigned) [Ex-111]
4. COc1cccc2c1nc(N)n1nc([C@@H]3C[C@H]3c3ccccc3)nc21 [Ex-34]
5. COc1cccc2c1nc(N)n1nc(C3(CO)CC3)nc21 [Ex-30]
Task: Arrange the 5 entries by pIC50 so the values rise. A ranking is expressed here by listing the labels in the requested order.
Result: 3, 5, 1, 2, 4
(3: 6.93, 5: 7.37, 1: 8.49, 2: 9.30, 4: 10.00)

A. COc1cccc2c1nc(N)n1nc(C3CC3c3ccc4nncn4c3)nc21 (centres unmarked) [Ex-13]
B. COc1cccc2c1nc(N)n1nc([C@H]3C[C@@](N)(c4ccc(C(C)(C)O)cn4)C3)nc21 [Ex-138]
Task: Parameter check: reported pIC50 is higher for which label, A or B ? Answer with the label corresponding to your selection.
Result: A

###

pIC50: −log10 of the molar value.
Reported values: pIC50 for human A2B adenosine receptor (Homo sapiens (Human), UniProt P29275), one per item.
reported property: pIC50

P. CNC(=O)c1ccc(C2CC2c2nc3c4cccc(OC)c4nc(N)n3n2)cc1 (stereo not shown) [Ex-19]
Q. COc1cccc2c1nc(N)n1nc(C3CC3c3ccccc3[C@H](C)O)nc21 (stereo partly shown) [Ex-15]
Task: Task for the reader: decide whether P or Q has the larger pIC50. Kindly give the label for the entry you pick.
Result: P

###

# experimental target: human A2B adenosine receptor (Homo sapiens (Human), UniProt P29275)
# Sequence (P29275 whole entry): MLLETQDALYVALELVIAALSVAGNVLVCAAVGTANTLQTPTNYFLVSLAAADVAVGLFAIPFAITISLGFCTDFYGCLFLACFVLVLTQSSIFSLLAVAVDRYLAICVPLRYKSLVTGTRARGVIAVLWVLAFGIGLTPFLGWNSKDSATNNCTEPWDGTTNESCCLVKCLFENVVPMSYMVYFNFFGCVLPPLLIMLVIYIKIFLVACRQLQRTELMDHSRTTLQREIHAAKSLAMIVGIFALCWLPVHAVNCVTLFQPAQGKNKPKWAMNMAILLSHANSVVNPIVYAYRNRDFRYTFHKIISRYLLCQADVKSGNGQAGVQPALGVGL
pIC50: −log10 of the molar value.
reported property: pIC50

1) COc1cccc2c1nc(N)n1nc([C@H]3C[C@H](c4ccccc4)C3)nc21 [Ex-136] : 6.94

A. COc1cccc2c1nc(N)n1nc(C3CC3C)nc21 (centres unmarked) [Ex-10]
B. COc1cccc2c1nc(N)n1nc(C3CC3c3c[nH]nc3C(F)(F)F)nc21 (centres unmarked) [Ex-25]
C. COc1cccc2c1nc(N)n1nc(C3CC3c3cccc4c3CNC4=O)nc21 (centres unmarked) [Ex-20]
Task: Order the 3 molecules from highest to lowest pIC50. Response field: labels, in requested order.
Result: A, B, C
(A: 7.34, B: 7.02, C: 6.40)

I. COc1cccc2c1nc(N)n1nc([C@H]3C[C@@H](c4ccccc4)C3)nc21 [Ex-135]
II. COc1cccc2c1nc(N)n1nc(C3CC3c3cn4ccnc4cc3C)nc21 (centres unmarked) [Ex-7]
Task: Among I and II , whose measured pIC50 is the smaller figure? Pick one and reply with its label.
Result: II
(II: 7.18, I: 7.45)
